# credit: paper PMC4522185

In this section we review reported IC50 values for a set of compounds.
TEST TARGET: Mtb 20S open-gate proteasome (Mycobacterium tuberculosis)
Sequence (P9WHT9 whole entry): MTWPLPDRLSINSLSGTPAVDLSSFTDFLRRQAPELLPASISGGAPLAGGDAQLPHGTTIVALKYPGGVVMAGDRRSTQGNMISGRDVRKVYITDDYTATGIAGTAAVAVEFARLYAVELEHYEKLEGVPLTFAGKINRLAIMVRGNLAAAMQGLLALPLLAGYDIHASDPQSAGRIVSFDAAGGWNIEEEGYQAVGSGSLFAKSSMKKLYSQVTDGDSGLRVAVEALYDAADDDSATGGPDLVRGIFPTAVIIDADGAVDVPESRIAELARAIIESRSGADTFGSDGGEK
Sequence (P9WHU1 whole entry partner): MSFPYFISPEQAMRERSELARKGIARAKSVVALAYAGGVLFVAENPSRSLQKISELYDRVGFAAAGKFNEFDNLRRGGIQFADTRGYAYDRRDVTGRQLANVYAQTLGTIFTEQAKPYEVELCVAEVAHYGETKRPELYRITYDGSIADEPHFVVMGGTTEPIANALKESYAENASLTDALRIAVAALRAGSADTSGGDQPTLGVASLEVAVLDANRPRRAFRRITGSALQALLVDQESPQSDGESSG
EXPERIMENT SUMMARY: biochemical
EXPERIMENTAL READOUT: IC50 (nM)

[[record]]
smiles_text = "O=c1oc(/C=C/c2ccncc2)ns1"
experimental_readout = "IC50"
units = "nM"
val = 2750

[[record]]
smiles_text = "O=c1oc(/C=C/c2cccs2)ns1"
experimental_readout = "IC50"
units = "nM"
val = 2100

[[record]]
smiles_text = "O=Cc1ccc(/C=C/c2nsc(=O)o2)o1"
experimental_readout = "IC50"
units = "nM"
val = 735

[[record]]
smiles_text = "O=c1oc(/C=C/c2ccsc2)ns1"
experimental_readout = "IC50"
units = "nM"
val = 1150

